Tested on: J774.2
assay: Antiinflammatory activity in lipopolysaccharide-induced mouse J774.2 cells assessed as inhibition of nitric oxide production at 25 ug/mL after 24 hrs by Griess method
Assay type: functional
run.conditions: J774.2, 24 h
measured.property: inhibition at 25 µg/mL (%)
API: value field is a number in %; no unit string.

Study these solved cases before continuing.
{"chemical.structure": "CCCCCCCCCCCSC(=S)C1=C(Nc2ccc(Cl)cc2Cl)CC(C)(C)CC1=O", "measured.property": "inhibition at 25 µg/mL", "value": 39.7}
{"chemical.structure": "CCCCSC(=S)C1=C(Nc2ccc(Br)cc2)CC(C)(C)CC1=O", "measured.property": "inhibition at 25 µg/mL", "value": 18.9}
{"chemical.structure": "CC1(C)CC(=O)C(C(=S)SCCO)=C(Nc2ccc(Br)cc2)C1", "measured.property": "inhibition at 25 µg/mL", "value": 37}
{"chemical.structure": "CC1(C)CC(=O)C(C(=S)SCc2ccccc2)=C(Nc2ccc(Br)cc2)C1", "measured.property": "inhibition at 25 µg/mL", "value": 38.5}

Give the reported inhibition at 25 µg/mL for this compound. "CC1(C)CC(=O)C(C(=S)SCc2ccccc2)=C(Nc2ccc(Cl)cc2Cl)C1"
39.5

Query inhibition at 25 µg/mL for "CC1(C)CC(=O)C=C(Nc2ccc(Br)cc2)C1"
62.7

Give reported inhibition at 25 µg/mL value for "CC(=O)OC[C@H]1O[C@@H](SC(=S)C2=C(Nc3ccc(Br)cc3)CC(C)(C)CC2=O)[C@H](OC(C)=O)[C@@H](OC(C)=O)[C@@H]1OC(C)=O"
68.4

Determine from records and report inhibition at 25 µg/mL for "CC1(C)CC(=O)C=C(Nc2ccc(Cl)cc2Cl)C1"
42.1

Return value of inhibition at 25 µg/mL for input "CC(=O)OC[C@H]1O[C@@H](SC(=S)C2=C(Nc3ccc(Cl)cc3)CC(C)(C)CC2=O)[C@H](OC(C)=O)[C@@H](OC(C)=O)[C@@H]1OC(C)=O" , no commentary.
77.3
